- Test system: EL4 cells
- protocol_text: Lectin staining for fucose expression inhibition, EL4 cells
- Assay type: cell-based
- condition_parameters: 3 days, 0-512 μM compound, AAL lectin, flow cytometry, n=3, read-out: EC50 for fucose expression inhibition, EL4 AAL
pEC50: −log10 of the molar value.
property: pEC50

Data request, read-out pEC50, for CC(=O)OC1O[C@@H](C)[C@@H](OC(C)=O)[C@@H](OC(C)=O)[C@@H]1F (stereo partly shown) [P-Fuc2Feq, reference compound]
< 3.30
